# Test system: Rattus norvegicus
# assay details: Dose normalized AUC in Sprague-Dawley rat at 2 mg/kg, po administered as gastric bolus by LC/MS/MS analysis
# Format: ADME, organism-based
# recorded conditions: in vivo
Simple rule here: AUC/dose less than 0.04 kg·h/L is 1, otherwise 0.

// below: answered molecules
CCOc1cc2ncnc(Nc3cc(S(=O)(=O)NC)ccc3OCC(F)(F)F)c2cc1OC = 0
CNS(=O)(=O)c1ccc(OCC(F)(F)F)c(Nc2ncnc3cc(OC)c(OC)cc23)c1 = 0
CNS(=O)(=O)c1ccc(N(C)C)c(Nc2ncnc3[nH]ccc23)c1 = 0
CNS(=O)(=O)c1ccc(OCC(F)(F)F)c(Nc2ncnc3cc(OCCCN4CCOCC4)ccc23)c1 = 1
CNS(=O)(=O)c1ccc(OCC(F)(F)F)c(Nc2ncnc3cc(OCCCOC)ccc23)c1 = 0
CNS(=O)(=O)c1ccc(N(C)C)c(Nc2ncnc3cc(OCCCN4CCOCC4)ccc23)c1 = 1
CNS(=O)(=O)c1ccc(OCC(F)(F)F)c(Nc2ncnc3cc(OC)c(OC)c(OC)c23)c1 = 0

Ask | Answer whether the molecule CNS(=O)(=O)c1ccc(N(C)C)c(Nc2ncnc3ccn(C)c23)c1 has AUC/dose strictly less than 0.04 kg·h/L
Reply | 1

###

# assay details: Fraction unbound in Sprague-Dawley rat plasma at 2 mg/kg, po administered as gastric bolus by LC/MS/MS analysis
# Format: ADME, organism-based
readout kind: fraction unbound
Answer with a bare number; do not write a unit.

Ask | Endpoint output: fraction unbound of CNS(=O)(=O)c1ccc(N(C)C)c(Nc2ncnc3cc(OC)c(OC)cc23)c1 . Value?
Reply | 0.202

###

Reported IC50 values for a set of compounds
# target desc: Serine/threonine-protein kinase TNNI3K (Homo sapiens)
# assay details: Displacement of 5-({[2-({[3-({4-[(5-hydroxy-2-methylphenyl)amino]-2-pyrimidinyl}amino)phenyl]carbonyl}amino)-ethyl]amino}carbonyl)-2-(6-hydroxy-3-oxo-3H-xanthen-9-yl)benzoic acid from full length human TNNI3K expressed in baculovirus system incubated for 60 mins by fluorescence polarization assay
Give the quantity in nM, number only.

CNS(=O)(=O)c1ccc(OCC(F)(F)F)c(Nc2ncnc3cc(OCCCN4CCOCC4)ccc23)c1 = 13
CCOc1cc2ncnc(Nc3cc(S(=O)(=O)NC)ccc3OCC(F)(F)F)c2cc1OC = 13
CNS(=O)(=O)c1ccc(OCC(F)(F)F)c(Nc2ncnc3cc(OCCCOC)ccc23)c1 = 25

Ask | Endpoint output: IC50 of CNS(=O)(=O)c1ccc(N(C)C)c(Nc2ncnc3ccccc23)c1 . Value?
Reply | 200

###

Reported IC50 values for a set of compounds
# target desc: Serine/threonine-protein kinase TNNI3K (Homo sapiens, UniProt Q59H18)
# Sequence (Q59H18 whole entry): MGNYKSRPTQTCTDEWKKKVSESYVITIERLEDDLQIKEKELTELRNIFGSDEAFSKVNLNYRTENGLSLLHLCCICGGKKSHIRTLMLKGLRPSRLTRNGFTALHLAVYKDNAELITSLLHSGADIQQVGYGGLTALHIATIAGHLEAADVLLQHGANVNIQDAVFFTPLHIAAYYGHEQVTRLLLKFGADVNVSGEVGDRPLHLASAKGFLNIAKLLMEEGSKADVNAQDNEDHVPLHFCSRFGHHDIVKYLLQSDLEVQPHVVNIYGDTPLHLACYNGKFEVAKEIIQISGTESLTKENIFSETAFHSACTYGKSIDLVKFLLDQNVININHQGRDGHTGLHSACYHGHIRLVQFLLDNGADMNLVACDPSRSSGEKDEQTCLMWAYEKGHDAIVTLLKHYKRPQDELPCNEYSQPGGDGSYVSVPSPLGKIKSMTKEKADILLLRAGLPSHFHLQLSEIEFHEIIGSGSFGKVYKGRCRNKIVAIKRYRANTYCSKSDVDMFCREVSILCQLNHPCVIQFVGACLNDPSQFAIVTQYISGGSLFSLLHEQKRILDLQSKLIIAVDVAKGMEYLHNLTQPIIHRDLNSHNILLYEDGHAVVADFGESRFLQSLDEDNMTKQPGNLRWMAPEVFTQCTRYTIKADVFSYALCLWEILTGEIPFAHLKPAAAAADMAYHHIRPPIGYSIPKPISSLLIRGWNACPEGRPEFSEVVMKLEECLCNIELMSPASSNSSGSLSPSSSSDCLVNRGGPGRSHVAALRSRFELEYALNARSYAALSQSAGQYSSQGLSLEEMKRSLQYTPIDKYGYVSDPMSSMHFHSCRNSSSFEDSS
# assay details: Displacement of 5-({[2-({[3-({4-[(5-hydroxy-2-methylphenyl)amino]-2-pyrimidinyl}amino)phenyl]carbonyl}amino)-ethyl]amino}carbonyl)-2-(6-hydroxy-3-oxo-3H-xanthen-9-yl)benzoic acid from full length human TNNI3K expressed in baculovirus system incubated for 60 mins by fluorescence polarization assay
Give the quantity in nM, number only.

Ask | Endpoint output: IC50 of CNS(=O)(=O)c1ccc(N(C)C)c(Nc2ncnc3ccsc23)c1 . Value?
Reply | 200

Ask | How about CNc1ccc2ncnc(Nc3cc(S(=O)(=O)NC)ccc3N(C)C)c2c1 ?
Reply | 50

Ask | How about CNS(=O)(=O)c1ccc(N(C)C)c(Nc2ncnc3cc(N)ccc23)c1 ?
Reply | 63

Ask | How about CNc1ccc2c(Nc3cc(S(=O)(=O)NC)ccc3N(C)C)ncnc2c1 ?
Reply | 40

Ask | How about CNS(=O)(=O)c1ccc(OCC(F)(F)F)c(Nc2ncnc3cc(OC)c(OC)cc23)c1 ?
Reply | 25

###

Reported log10 of IC50 values for a set of molecules
# target desc: Serine/threonine-protein kinase TNNI3K (Homo sapiens)
# Sequence (Q59H18 whole entry): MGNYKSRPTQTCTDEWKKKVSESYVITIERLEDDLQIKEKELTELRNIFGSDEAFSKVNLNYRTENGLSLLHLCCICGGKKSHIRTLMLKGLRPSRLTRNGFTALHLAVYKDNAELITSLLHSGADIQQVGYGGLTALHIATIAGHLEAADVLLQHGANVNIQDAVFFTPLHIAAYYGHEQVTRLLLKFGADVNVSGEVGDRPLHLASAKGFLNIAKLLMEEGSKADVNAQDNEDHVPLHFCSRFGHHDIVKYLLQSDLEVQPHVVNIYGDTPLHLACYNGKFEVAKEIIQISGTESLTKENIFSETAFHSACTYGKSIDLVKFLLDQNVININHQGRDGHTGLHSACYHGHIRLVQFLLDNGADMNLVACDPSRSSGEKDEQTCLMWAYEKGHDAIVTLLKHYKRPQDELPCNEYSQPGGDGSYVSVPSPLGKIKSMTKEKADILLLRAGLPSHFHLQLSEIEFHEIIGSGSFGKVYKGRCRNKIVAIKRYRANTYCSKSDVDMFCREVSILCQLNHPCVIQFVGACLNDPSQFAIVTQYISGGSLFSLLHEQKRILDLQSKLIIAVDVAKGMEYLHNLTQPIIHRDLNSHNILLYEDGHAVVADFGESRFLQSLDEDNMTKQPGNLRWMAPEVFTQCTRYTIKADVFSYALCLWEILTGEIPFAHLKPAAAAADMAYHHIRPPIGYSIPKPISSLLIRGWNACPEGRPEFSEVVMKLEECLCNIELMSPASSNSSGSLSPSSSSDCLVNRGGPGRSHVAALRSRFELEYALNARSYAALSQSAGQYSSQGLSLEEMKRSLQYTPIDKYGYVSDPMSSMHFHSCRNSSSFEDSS
# assay details: Inhibition of human myc-tagged TNNI3K autophosphorylation overexpressed in HEKMSR2 cells incubated for 30 mins by time resolved fluorescence assay
# Type: cell-based
Lab note - IC50 converted to log10 from values in µM.

Ask | Endpoint output: log10 of IC50 of CNS(=O)(=O)c1ccc(OCC(F)(F)F)c(Nc2ncnc3cc(OCCCOC)ccc23)c1 . Value?
Reply | -0.49

Ask | How about CNS(=O)(=O)c1ccc(OCC(F)(F)F)c(Nc2ncnc3cc(OC)c(OC)cc23)c1 ?
Reply | -0.80

Ask | How about CNS(=O)(=O)c1ccc(N(C)C)c(Nc2ncnc3cc(OCCCOC)ccc23)c1 ?
Reply | -1.60

Ask | How about CNS(=O)(=O)c1ccc(N(C)C)c(Nc2ncnc3cc(OC)cc(OC)c23)c1 ?
Reply | -2.00

Ask | How about CNS(=O)(=O)c1ccc(N(C)C)c(Nc2ncnc3cc(OCCCN4CCOCC4)ccc23)c1 ?
Reply | -1.60

Ask | How about CNS(=O)(=O)c1ccc(OCC(F)(F)F)c(Nc2ncnc3cc(OC)cc(OC)c23)c1 ?
Reply | -1.89

Ask | How about CNS(=O)(=O)c1ccc(OCC(F)(F)F)c(Nc2ncnc3cc(OC)c(OC)c(OC)c23)c1 ?
Reply | -1.20

Ask | How about CNS(=O)(=O)c1ccc(N(C)C)c(Nc2ncnc3cc[nH]c23)c1 ?
Reply | -0.30

Ask | How about CCOc1cc2ncnc(Nc3cc(S(=O)(=O)NC)ccc3OCC(F)(F)F)c2cc1OC ?
Reply | -1.30

Ask | How about CNS(=O)(=O)c1ccc(N(C)C)c(Nc2ncnc3ccn(C)c23)c1 ?
Reply | -1.30

Ask | How about CNS(=O)(=O)c1ccc(N(C)C)c(Nc2ncnc3cc(OC)c(OC)cc23)c1 ?
Reply | -1.00

Ask | How about CNS(=O)(=O)c1ccc(OCC(F)(F)F)c(Nc2ncnc3cc(OCCCN4CCOCC4)ccc23)c1 ?
Reply | -1.10
